Test system: KB
Assay procedure: Cytotoxicity against human KB cells assessed as cell viability after 48 hrs by neutral red uptake assay
Format: cell-based
Residues, ends and D or L forms follow the SMILES beside them. *: point of attachment. Boc = CC(C)(C)OC(=O)*; NHBn = c1ccc(CN*)cc1
Assign Activity to each entry below.

Reported Activity (KB) for entry COC(=O)[C@H](Cc1c[nH]cn1)NC(=O)[C@H](Cc1c[nH]c2ccccc12)NC(=O)OC(C)(C)C (Boc-Trp-His-OMe) is > 10 µg/mL

Reported Activity (KB) for entry Cc1ccc(-c2nc(C[C@H](N)C(=O)N[C@@H](CCCNC(=N)N)C(=O)NCc3ccccc3)c[nH]2)cc1 is > 10 µg/mL

Reported Activity (KB) for entry COc1ccc(-c2nc(C[C@H](N)C(=O)N[C@@H](CCCNC(=N)N)C(=O)NCc3ccccc3)c[nH]2)cc1 is > 10 µg/mL

Reported Activity (KB) for entry COC(=O)[C@H](CCCNC(=N)N)NC(=O)[C@@H](N)Cc1c[nH]c(-c2ccc(C)cc2)n1 is > 10 µg/mL

Reported Activity (KB) for entry COC(=O)[C@H](Cc1c[nH]c(-c2ccc(-c3ccccc3)cc2)n1)NC(=O)[C@H](Cc1c[nH]c2ccccc12)NC(=O)OC(C)(C)C is > 10 µg/mL

Reported Activity (KB) for entry COC(=O)[C@H](CCCNC(=N)N)NC(=O)[C@@H](N)Cc1c[nH]c(-c2cccc3ccccc23)n1 is > 10 µg/mL

Reported Activity (KB) for entry N=C(N)NCCC[C@H](NC(=O)[C@@H](N)Cc1c[nH]cn1)C(=O)NCc1ccccc1 (H-His-Arg-NHBn) is > 10 µg/mL

Reported Activity (KB) for entry COC(=O)[C@H](CCCNC(=N)N)NC(=O)[C@H](Cc1c[nH]c(-c2ccc(C(C)(C)C)cc2)n1)NC(=O)OC(C)(C)C is > 10 µg/mL

Reported Activity (KB) for entry COC(=O)[C@H](Cc1c[nH]c(-c2cccc3ccccc23)n1)NC(=O)[C@H](Cc1c[nH]c2ccccc12)NC(=O)OC(C)(C)C is > 10 µg/mL

Reported Activity (KB) for entry COC(=O)[C@H](Cc1c[nH]c(-c2ccccc2)n1)NC(=O)[C@H](Cc1c[nH]c2ccccc12)NC(=O)OC(C)(C)C is > 10 µg/mL

Reported Activity (KB) for entry COC(=O)[C@H](Cc1c[nH]cn1)NC(=O)[C@@H](N)Cc1c[nH]c2ccccc12 (H-Trp-His-OMe) is > 10 µg/mL

Reported Activity (KB) for entry Cc1ccc(-c2nc(C[C@H](NC(=O)OC(C)(C)C)C(=O)N[C@@H](CCCNC(=N)N)C(=O)NCc3ccccc3)c[nH]2)cc1 is > 10 µg/mL

Reported Activity (KB) for entry COC(=O)[C@H](CCCNC(=N)N)NC(=O)[C@@H](N)Cc1c[nH]c(-c2ccc(C(C)(C)C)cc2)n1 is > 10 µg/mL

Reported Activity (KB) for entry CC(C)(C)OC(=O)N[C@@H](Cc1c[nH]c2ccccc12)C(=O)N[C@@H](Cc1c[nH]c(-c2ccc(-c3ccccc3)cc2)n1)C(=O)NCc1ccccc1 is > 10 µg/mL

Reported Activity (KB) for entry CC(C)(C)OC(=O)N[C@@H](Cc1c[nH]c2ccccc12)C(=O)N[C@@H](Cc1c[nH]cn1)C(=O)NCc1ccccc1 (Boc-Trp-His-NHBn) is > 10 µg/mL

Reported Activity (KB) for entry CC(C)(C)c1ccc(-c2nc(C[C@H](N)C(=O)N[C@@H](CCCNC(=N)N)C(=O)NCc3ccccc3)c[nH]2)cc1 is > 10 µg/mL

Reported Activity (KB) for entry COC(=O)[C@H](CCCNC(=N)N)NC(=O)[C@H](Cc1c[nH]c(-c2cccc3ccccc23)n1)NC(=O)OC(C)(C)C is > 10 µg/mL

Reported Activity (KB) for entry N[C@@H](Cc1c[nH]c2ccccc12)C(=O)N[C@@H](Cc1c[nH]c(-c2ccc(-c3ccccc3)cc2)n1)C(=O)NCc1ccccc1 is > 10 µg/mL

Reported Activity (KB) for entry COC(=O)[C@H](Cc1c[nH]c(-c2ccc(C)cc2)n1)NC(=O)[C@@H](N)Cc1c[nH]c2ccccc12 is > 10 µg/mL

Reported Activity (KB) for entry COC(=O)[C@H](CCCNC(=N)N)NC(=O)[C@H](Cc1c[nH]cn1)NC(=O)OC(C)(C)C (Boc-His-Arg-OMe) is > 10 µg/mL

Reported Activity (KB) for entry COC(=O)[C@H](Cc1c[nH]c(-c2ccc(-c3ccccc3)cc2)n1)NC(=O)[C@@H](N)Cc1c[nH]c2ccccc12 is > 10 µg/mL

Reported Activity (KB) for entry CC(C)(C)OC(=O)N[C@@H](Cc1c[nH]c2ccccc12)C(=O)N[C@@H](Cc1c[nH]c(-c2ccc(C(C)(C)C)cc2)n1)C(=O)NCc1ccccc1 is > 10 µg/mL

Reported Activity (KB) for entry COC(=O)[C@H](Cc1c[nH]c(-c2ccc(OC)cc2)n1)NC(=O)[C@H](Cc1c[nH]c2ccccc12)NC(=O)OC(C)(C)C is > 10 µg/mL

Reported Activity (KB) for entry CC(C)(C)OC(=O)N[C@@H](Cc1c[nH]c(-c2ccccc2)n1)C(=O)N[C@@H](CCCNC(=N)N)C(=O)NCc1ccccc1 is > 10 µg/mL

Reported Activity (KB) for entry COC(=O)[C@H](Cc1c[nH]c(-c2cccc3ccccc23)n1)NC(=O)[C@@H](N)Cc1c[nH]c2ccccc12 is > 10 µg/mL

Reported Activity (KB) for entry N=C(N)NCCC[C@H](NC(=O)[C@@H](N)Cc1c[nH]c(-c2ccccc2)n1)C(=O)NCc1ccccc1 is > 10 µg/mL

Reported Activity (KB) for entry N=C(N)NCCC[C@H](NC(=O)[C@@H](N)Cc1c[nH]c(-c2ccc(-c3ccccc3)cc2)n1)C(=O)NCc1ccccc1 is > 10 µg/mL

Reported Activity (KB) for entry COC(=O)[C@H](Cc1c[nH]c(-c2ccc(OC)cc2)n1)NC(=O)[C@@H](N)Cc1c[nH]c2ccccc12 is > 10 µg/mL

Reported Activity (KB) for entry COC(=O)[C@H](CCCNC(=N)N)NC(=O)[C@@H](N)Cc1c[nH]c(-c2ccc(OC)cc2)n1 is > 10 µg/mL

These entries and their values trace back to ChEMBL document CHEMBL3132745.
